- SYSTEM: T1, IL-23 (mouse, p19/p40 heterodimer) (Mus musculus, UniProt Q9EQ14;P43432 SEQ:22-196,SEQ:23-335)
- T1 sequence 1: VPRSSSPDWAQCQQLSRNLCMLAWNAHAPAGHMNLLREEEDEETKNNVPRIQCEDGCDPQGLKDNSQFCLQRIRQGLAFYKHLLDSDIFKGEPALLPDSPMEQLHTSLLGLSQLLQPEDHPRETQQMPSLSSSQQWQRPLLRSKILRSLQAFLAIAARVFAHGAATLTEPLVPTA
- T1 sequence 2: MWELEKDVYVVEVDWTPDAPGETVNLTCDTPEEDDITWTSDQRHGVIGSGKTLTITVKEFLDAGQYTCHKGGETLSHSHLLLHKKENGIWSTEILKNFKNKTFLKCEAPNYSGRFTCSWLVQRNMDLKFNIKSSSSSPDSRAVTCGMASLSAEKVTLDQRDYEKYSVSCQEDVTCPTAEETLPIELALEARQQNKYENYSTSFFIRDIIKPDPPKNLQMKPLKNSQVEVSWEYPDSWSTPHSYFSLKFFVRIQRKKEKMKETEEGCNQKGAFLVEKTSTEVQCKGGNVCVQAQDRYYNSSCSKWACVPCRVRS
- ASSAY_METHOD_TEXT: filter; 1X PBS, 0.1 mg/mL BSA, 30 min RT
- REPORTED_CONDITIONS: tags: isolated in-house; label: 32P
METRIC: Kd (nM)
Numbers only, in nM.

Completed entries (count: 3):
binder="ARC1629 (ssRNA, 2'-F all C and U (rRfY)) RNA: GGAGCGCACUCAGCCACCGUAAUUCACAAGGUCCCUGAGUGCAGGGUUGUAUGUUUGUUUCGACCUCUCUGCUAGC" unit=nM recorded_number=34
binder="ARC1631 (ssRNA, 2'-F all C and U (rRfY)) RNA: GGAGCGCACUCAGCCACGCCUACAAUUCACUGUGAUAUAUCGAAUUAUAGCCCUGGUUUCGACCUCUCUGCUAGC" unit=nM recorded_number=33
binder="ARC1633 (ssRNA, 2'-F all C and U (rRfY)) RNA: GGAGCGCACUCAGCCACAGCUCGGUGGCUUAAUAUCUAUGUGAACGUGCGCAACAGCUUUCGACCUCUCUGCUAGC" unit=nM recorded_number=17

Lab note: next binder to report on.
GET /values?readout=Kd&item= ARC1632 (ssRNA, 2'-F all C and U (rRfY)) RNA: GGAGCGCACUCAGCCACCGGCUUAAUAUCCAAUAGGAACGUUCGCUCUGAGCAGGCGUUUCGACCUCUCUGCUAGC 13

FYI, the data here is from patent US20060193821.
